phosphorylation enrichment listing for selected sequences.
target: MERTK (UniProt Q12866); assay: phosphorylation enrichment, bacterial display (enrichment ratio); higher = better substrate or ligand; peptides without Tyr show the background;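 further: 11-residue human phosphosite peptides and single-mutation variants displayed on the E. coli surface, counted by deep sequencing, each peptide's frequency after selection divided by its frequency in the unselected input library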;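 further: frequency after pTyr selection over input frequency; kinase dosed for 20-30% of maximal phosphorylation in three min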
Sequence (Q12866 whole entry, looked up): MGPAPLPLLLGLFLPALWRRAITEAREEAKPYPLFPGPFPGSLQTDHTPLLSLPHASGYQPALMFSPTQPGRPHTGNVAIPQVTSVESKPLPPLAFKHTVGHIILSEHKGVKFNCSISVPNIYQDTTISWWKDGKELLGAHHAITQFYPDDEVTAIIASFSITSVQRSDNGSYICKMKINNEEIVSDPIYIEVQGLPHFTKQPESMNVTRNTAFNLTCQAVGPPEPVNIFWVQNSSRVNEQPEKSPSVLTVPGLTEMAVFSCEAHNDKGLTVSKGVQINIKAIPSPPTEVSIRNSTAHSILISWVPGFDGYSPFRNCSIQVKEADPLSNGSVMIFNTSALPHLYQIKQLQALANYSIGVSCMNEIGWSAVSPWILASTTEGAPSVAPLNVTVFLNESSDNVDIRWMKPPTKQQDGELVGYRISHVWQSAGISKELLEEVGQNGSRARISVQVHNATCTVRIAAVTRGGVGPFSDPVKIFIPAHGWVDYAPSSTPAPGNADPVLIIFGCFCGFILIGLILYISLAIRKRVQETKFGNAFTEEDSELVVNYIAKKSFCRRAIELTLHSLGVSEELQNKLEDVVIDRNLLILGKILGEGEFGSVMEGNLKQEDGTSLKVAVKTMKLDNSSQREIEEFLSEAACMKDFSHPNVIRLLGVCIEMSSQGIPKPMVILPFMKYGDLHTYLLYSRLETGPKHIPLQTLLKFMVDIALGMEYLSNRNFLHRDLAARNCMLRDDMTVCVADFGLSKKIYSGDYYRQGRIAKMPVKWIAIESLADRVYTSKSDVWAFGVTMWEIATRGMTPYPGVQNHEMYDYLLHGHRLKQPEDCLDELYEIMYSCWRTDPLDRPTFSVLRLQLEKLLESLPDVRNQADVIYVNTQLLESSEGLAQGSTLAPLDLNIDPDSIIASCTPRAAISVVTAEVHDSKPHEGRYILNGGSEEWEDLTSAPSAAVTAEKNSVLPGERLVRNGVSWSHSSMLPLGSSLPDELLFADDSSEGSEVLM
observable: phosphorylation enrichment

[[record]]
ordered_residues = "TLMNAYSSRSH [KIF11_Y231]"
measured_result = 0.636

[[record]]
ordered_residues = "GHLFANDWISI [BEST1_Y227_Y227N_YF]"
measured_result = 0.421

[[record]]
ordered_residues = "PAGSGYPAFLG [ATP6V1A_Y374_D371G_YF]"
measured_result = 0.469

[[record]]
ordered_residues = "STLEVYSCHPP [IL21R_Y317]"
measured_result = 0.774

[[record]]
ordered_residues = "LEGAKYVSHGA [ASS1_Y113_R108L]"
measured_result = 0.551

[[record]]
ordered_residues = "SAEEDYIADAK [KCNT1_Y876_M877I]"
measured_result = 0.456

[[record]]
ordered_residues = "RQRTAYFSLDT [CDH1_Y68]"
measured_result = 0.535

[[record]]
ordered_residues = "ESFCLYPPVPQ [CYP4B1_Y377_R375C]"
measured_result = 0.447

[[record]]
ordered_residues = "LPPGTYPSDFT [UNC5B_Y511_A516T]"
measured_result = 1.04

[[record]]
ordered_residues = "LAAPKYKLNVD [SMARCA2_Y1190_A1188P]"
measured_result = 0.346

[[record]]
ordered_residues = "KDHPDYKYQLR [SOX10_Y171_P175L]"
measured_result = 0.38

[[record]]
ordered_residues = "YQKDVYDIPPS [NEDD9_Y177]"
measured_result = 7.34


----------
biological target: EPHB2 (UniProt P29323); test: phosphorylation enrichment, bacterial display (enrichment ratio); higher = better substrate or ligand; peptides without Tyr show the background
Sequence (P29323 whole entry, looked up): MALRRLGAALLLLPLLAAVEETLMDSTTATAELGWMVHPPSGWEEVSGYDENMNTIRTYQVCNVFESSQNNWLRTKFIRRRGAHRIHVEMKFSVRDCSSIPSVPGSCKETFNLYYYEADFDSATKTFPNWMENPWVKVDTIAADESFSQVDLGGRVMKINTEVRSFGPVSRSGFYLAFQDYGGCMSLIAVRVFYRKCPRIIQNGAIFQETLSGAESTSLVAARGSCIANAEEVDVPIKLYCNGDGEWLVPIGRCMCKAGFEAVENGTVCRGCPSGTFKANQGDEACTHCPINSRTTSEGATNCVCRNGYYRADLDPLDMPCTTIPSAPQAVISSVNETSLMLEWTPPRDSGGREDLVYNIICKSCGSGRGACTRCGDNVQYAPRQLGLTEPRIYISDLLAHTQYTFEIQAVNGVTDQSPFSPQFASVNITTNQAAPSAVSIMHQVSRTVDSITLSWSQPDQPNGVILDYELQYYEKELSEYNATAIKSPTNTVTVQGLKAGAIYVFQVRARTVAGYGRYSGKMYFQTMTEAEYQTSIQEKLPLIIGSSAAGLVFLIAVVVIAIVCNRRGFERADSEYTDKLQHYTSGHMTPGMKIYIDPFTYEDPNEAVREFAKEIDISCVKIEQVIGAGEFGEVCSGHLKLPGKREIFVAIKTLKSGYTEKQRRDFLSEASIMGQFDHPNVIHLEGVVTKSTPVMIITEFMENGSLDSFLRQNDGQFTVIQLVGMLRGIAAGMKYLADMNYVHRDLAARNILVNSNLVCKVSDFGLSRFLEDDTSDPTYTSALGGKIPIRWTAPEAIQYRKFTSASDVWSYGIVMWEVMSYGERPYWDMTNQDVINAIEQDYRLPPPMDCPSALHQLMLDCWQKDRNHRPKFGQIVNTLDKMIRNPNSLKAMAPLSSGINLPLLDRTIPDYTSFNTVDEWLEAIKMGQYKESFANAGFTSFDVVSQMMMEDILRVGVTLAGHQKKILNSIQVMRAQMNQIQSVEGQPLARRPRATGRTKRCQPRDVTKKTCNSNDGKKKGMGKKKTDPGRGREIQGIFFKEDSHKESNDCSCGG
phosphorylation enrichment listing for selected sequences.
observable: phosphorylation enrichment

[[record]]
ordered_residues = "LDYNEYFRNLN [HPRT1_Y198_D201N]"
observable = "phosphorylation enrichment"
measured_result = 0.751

[[record]]
ordered_residues = "RLQEGYDHSYY [ESD_Y258]"
observable = "phosphorylation enrichment"
measured_result = 0.53

[[record]]
ordered_residues = "KGSEGYLAATF [NF1_Y2503_YF]"
observable = "phosphorylation enrichment"
measured_result = 0.402

[[record]]
ordered_residues = "GDRPVYSEDEQ [CHST6_Y362_Y358D]"
observable = "phosphorylation enrichment"
measured_result = 0.702

[[record]]
ordered_residues = "HLEKKYVRRDS [CSF1R_Y708]"
observable = "phosphorylation enrichment"
measured_result = 2.23

[[record]]
ordered_residues = "CEDGNYSPEIS [PTDSS1_Y424_T423N]"
observable = "phosphorylation enrichment"
measured_result = 0.871

[[record]]
ordered_residues = "RQEEEYKRLSE [SFSWAP_Y133]"
observable = "phosphorylation enrichment"
measured_result = 1.15

[[record]]
ordered_residues = "CTTIHYNYMCN [TP53_Y234]"
observable = "phosphorylation enrichment"
measured_result = 0.696

[[record]]
ordered_residues = "VSGIPYSQPKQ [NEU1_Y251_G252S]"
observable = "phosphorylation enrichment"
measured_result = 0.4

[[record]]
ordered_residues = "IDDLEYLHSQG [STK11_Y166_G163D]"
observable = "phosphorylation enrichment"
measured_result = 0.777

[[record]]
ordered_residues = "VDHFGYNKDDK [APOB_Y740_T741N]"
observable = "phosphorylation enrichment"
measured_result = 0.528

[[record]]
ordered_residues = "LDCNEYFRDLN [HPRT1_Y198_Y195C]"
observable = "phosphorylation enrichment"
measured_result = 0.922

[[record]]
ordered_residues = "CRIELYRVVES [IGFBP1_Y181]"
observable = "phosphorylation enrichment"
measured_result = 0.68

[[record]]
ordered_residues = "NNDLCYWVPEL [IARS1_Y434]"
observable = "phosphorylation enrichment"
measured_result = 5.52

[[record]]
ordered_residues = "GMIQAYSSSQR [DES_Y5_S2I]"
observable = "phosphorylation enrichment"
measured_result = 0.334

[[record]]
ordered_residues = "VRFMADTDETF [F8_Y450_Y450D]"
observable = "phosphorylation enrichment"
measured_result = 0.644

[[record]]
ordered_residues = "QMVGMYAFSFM [AVPR2_Y124_S126F_YF]"
observable = "phosphorylation enrichment"
measured_result = 3.08

[[record]]
ordered_residues = "VITDYYVDMKF [MPP4_Y567]"
observable = "phosphorylation enrichment"
measured_result = 1.98

[[record]]
ordered_residues = "PANTVYSTVEI [SLAMF7_Y304]"
observable = "phosphorylation enrichment"
measured_result = 1.83

[[record]]
ordered_residues = "LSDGPYSNPFE [EPOR_Y485_YF]"
observable = "phosphorylation enrichment"
measured_result = 0.628

[[record]]
ordered_residues = "ERTIEYLEEVV [HADHA_Y239_A244V]"
observable = "phosphorylation enrichment"
measured_result = 0.615

[[record]]
ordered_residues = "DKANRYFSPNV [PTEN_Y336_F341V]"
observable = "phosphorylation enrichment"
measured_result = 0.394


----------
target: Hck (UniProt P08631); assay: phosphorylation enrichment, bacterial display (enrichment ratio); higher = better substrate or ligand; peptides without Tyr show the background
Sequence (P08631 whole entry, looked up): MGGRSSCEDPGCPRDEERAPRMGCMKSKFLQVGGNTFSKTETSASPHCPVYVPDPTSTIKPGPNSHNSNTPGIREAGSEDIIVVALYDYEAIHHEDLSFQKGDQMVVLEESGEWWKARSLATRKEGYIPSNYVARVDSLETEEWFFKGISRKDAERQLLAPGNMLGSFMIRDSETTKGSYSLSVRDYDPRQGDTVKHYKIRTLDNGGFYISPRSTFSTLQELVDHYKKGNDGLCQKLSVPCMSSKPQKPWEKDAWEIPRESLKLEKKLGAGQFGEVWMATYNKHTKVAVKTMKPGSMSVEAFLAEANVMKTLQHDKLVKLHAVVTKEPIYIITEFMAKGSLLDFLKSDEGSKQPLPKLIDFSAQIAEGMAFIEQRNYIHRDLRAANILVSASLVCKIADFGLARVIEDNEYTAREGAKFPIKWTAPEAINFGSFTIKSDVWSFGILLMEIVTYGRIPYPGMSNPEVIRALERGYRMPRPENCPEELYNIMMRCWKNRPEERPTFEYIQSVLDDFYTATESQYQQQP
observable: phosphorylation enrichment

[[record]]
ordered_residues = "KKFPDYIQIAM [SGMS2_Y59_YF]"
system_under_test = "Hck (UniProt P08631)"
observable = "phosphorylation enrichment"
measured_result = 0.496

[[record]]
ordered_residues = "PASLSYLSFEG [EXOSC3_Y143]"
system_under_test = "Hck (UniProt P08631)"
observable = "phosphorylation enrichment"
measured_result = 0.602

[[record]]
ordered_residues = "ERTIEYLEEVV [HADHA_Y239_A244V]"
system_under_test = "Hck (UniProt P08631)"
observable = "phosphorylation enrichment"
measured_result = 0.498

[[record]]
ordered_residues = "GDRPVYSEDEQ [CHST6_Y362_Y358D]"
system_under_test = "Hck (UniProt P08631)"
observable = "phosphorylation enrichment"
measured_result = 0.662

[[record]]
ordered_residues = "TWSRSYRSDRL [CRYBB1_Y131_S129R]"
system_under_test = "Hck (UniProt P08631)"
observable = "phosphorylation enrichment"
measured_result = 0.614

[[record]]
ordered_residues = "RVFRDYVLKSA [HTATIP2_Y111_D108Y_YF]"
system_under_test = "Hck (UniProt P08631)"
observable = "phosphorylation enrichment"
measured_result = 0.591

[[record]]
ordered_residues = "IRRWVYPLTPE [EIF2B5_Y319]"
system_under_test = "Hck (UniProt P08631)"
observable = "phosphorylation enrichment"
measured_result = 0.481


----------
phosphorylation enrichment listing for selected sequences.
target: EPHB1 (UniProt P54762); assay: phosphorylation enrichment, bacterial display (enrichment ratio); higher = better substrate or ligand; peptides without Tyr show the background
Sequence (P54762 whole entry, looked up): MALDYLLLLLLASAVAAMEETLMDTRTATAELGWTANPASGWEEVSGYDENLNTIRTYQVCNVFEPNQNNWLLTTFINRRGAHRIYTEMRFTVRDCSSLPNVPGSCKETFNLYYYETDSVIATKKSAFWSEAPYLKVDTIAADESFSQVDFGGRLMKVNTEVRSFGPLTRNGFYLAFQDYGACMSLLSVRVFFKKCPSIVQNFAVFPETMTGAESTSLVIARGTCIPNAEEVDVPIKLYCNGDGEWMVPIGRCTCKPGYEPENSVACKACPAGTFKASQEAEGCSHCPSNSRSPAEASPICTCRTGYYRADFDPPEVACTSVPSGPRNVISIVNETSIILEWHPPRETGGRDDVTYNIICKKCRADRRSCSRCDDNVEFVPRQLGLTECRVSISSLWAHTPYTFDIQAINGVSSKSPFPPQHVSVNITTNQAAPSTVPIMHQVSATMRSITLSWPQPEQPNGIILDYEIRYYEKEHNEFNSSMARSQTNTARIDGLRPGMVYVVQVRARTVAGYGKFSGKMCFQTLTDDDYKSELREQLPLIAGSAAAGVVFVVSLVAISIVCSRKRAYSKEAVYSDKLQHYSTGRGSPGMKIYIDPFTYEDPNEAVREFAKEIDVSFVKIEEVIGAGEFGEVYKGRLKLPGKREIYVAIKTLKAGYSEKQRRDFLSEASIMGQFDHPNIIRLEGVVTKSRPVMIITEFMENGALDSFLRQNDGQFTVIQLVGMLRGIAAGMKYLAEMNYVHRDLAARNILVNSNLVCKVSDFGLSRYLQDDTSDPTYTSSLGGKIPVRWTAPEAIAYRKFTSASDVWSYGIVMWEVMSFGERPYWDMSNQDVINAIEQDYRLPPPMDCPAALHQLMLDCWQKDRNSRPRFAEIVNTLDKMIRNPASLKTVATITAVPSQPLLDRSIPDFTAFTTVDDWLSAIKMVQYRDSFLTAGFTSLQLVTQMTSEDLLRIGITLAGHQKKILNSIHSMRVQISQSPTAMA
observable: phosphorylation enrichment

[[record]]
ordered_residues = "FTRNFYVWAVL [CYBA_Y88_R90W_YF]"
observable = "phosphorylation enrichment"
measured_result = 0.573

[[record]]
ordered_residues = "GCKNRYDKGKP [THAP1_Y14_D17G]"
observable = "phosphorylation enrichment"
measured_result = 0.481

[[record]]
ordered_residues = "VQVAFYTMMMN [SPATA17_Y84_YF]"
observable = "phosphorylation enrichment"
measured_result = 1.3

[[record]]
ordered_residues = "PYVYYYSYLLK [PTEN_Y178_R173P]"
observable = "phosphorylation enrichment"
measured_result = 3.56

[[record]]
ordered_residues = "DRLAVYIDRVR [LMNA_Y45]"
observable = "phosphorylation enrichment"
measured_result = 0.542


----------
molecular target: FGFR1 (UniProt P11362); test: phosphorylation enrichment, bacterial display (enrichment ratio); higher = better substrate or ligand; peptides without Tyr show the background
Sequence (P11362 whole entry, looked up): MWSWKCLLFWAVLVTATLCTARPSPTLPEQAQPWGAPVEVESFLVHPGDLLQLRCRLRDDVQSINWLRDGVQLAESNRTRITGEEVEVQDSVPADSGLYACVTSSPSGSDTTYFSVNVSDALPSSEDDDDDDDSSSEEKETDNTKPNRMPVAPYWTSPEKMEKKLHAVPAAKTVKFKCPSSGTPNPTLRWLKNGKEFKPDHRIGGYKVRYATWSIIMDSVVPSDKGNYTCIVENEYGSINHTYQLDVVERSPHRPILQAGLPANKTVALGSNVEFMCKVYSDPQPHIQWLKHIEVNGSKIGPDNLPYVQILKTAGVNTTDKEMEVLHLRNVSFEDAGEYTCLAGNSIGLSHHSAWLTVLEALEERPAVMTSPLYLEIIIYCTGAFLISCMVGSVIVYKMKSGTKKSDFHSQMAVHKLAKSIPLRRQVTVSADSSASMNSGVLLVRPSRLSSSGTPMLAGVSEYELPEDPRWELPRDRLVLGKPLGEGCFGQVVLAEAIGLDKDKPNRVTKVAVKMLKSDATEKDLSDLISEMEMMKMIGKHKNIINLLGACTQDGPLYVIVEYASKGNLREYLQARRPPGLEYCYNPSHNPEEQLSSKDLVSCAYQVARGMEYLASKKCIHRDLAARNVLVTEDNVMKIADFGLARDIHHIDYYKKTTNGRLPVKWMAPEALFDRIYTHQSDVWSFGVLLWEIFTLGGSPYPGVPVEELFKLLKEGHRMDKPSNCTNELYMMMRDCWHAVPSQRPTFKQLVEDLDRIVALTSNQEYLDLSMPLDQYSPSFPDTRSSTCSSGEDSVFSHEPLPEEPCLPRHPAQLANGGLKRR
Threshold check on phosphorylation enrichment: at or above 0.5 gives t, strictly below gives f.

[[record]]
ordered_residues = "TKAEKYVNKPK [PLCG1_Y991_A995P]"
qualitative_label = "t"

[[record]]
ordered_residues = "GQDLFYEDEDL [PACS1_Y303]"
qualitative_label = "t"

[[record]]
ordered_residues = "ALVLQYLRVPL [F9_Y371]"
qualitative_label = "t"

[[record]]
ordered_residues = "VIECSYTSADG [DHCR7_Y382]"
qualitative_label = "t"

[[record]]
ordered_residues = "LFHENYNAGTY [CFI_Y421_I416L]"
qualitative_label = "t"

[[record]]
ordered_residues = "LSRDVYEEDSF [RET_Y900_YF]"
qualitative_label = "t"

[[record]]
ordered_residues = "VSSPKYGSDDE [TMCC2_Y473]"
qualitative_label = "f"

[[record]]
ordered_residues = "VDHFGYNKDDK [APOB_Y740_T741N]"
qualitative_label = "f"

[[record]]
ordered_residues = "SSDKVCAHQMV [MLH1_Y379_Y379C]"
qualitative_label = "f"

[[record]]
ordered_residues = "PAGSGYPAFLG [ATP6V1A_Y374_D371G_YF]"
qualitative_label = "t"

[[record]]
ordered_residues = "PVQAVYQKVVA [HBB_Y131_A130V]"
qualitative_label = "f"

[[record]]
ordered_residues = "PPVVNYEQDAR [FER_Y402_E404Q]"
qualitative_label = "t"

[[record]]
ordered_residues = "ATHSGYRLNDF [CLDN14_Y233_YF]"
qualitative_label = "f"

[[record]]
ordered_residues = "TFVVLYDAELT [ERCC4_Y581_R576T_YF]"
qualitative_label = "t"

[[record]]
ordered_residues = "RGGWVYVLHPT [TRMT61A_Y67]"
qualitative_label = "t"

[[record]]
ordered_residues = "EWQQIYTFDSG [JUP_Y20_T19I_YF]"
qualitative_label = "t"

[[record]]
ordered_residues = "WRGMPYGGRGD [TGM1_Y312_R307W]"
qualitative_label = "f"

[[record]]
ordered_residues = "KHGGNYVPAPE [OSCP1_Y237_K242E]"
qualitative_label = "f"

[[record]]
ordered_residues = "QNKEDYAGLKE [GSTO1_Y139]"
qualitative_label = "t"

[[record]]
ordered_residues = "YFWDGYMPRQY [GSS_Y270_R267W]"
qualitative_label = "t"

[[record]]
ordered_residues = "SAEKAYHEQFS [TUBA1A_Y282_L286F]"
qualitative_label = "t"

[[record]]
ordered_residues = "YIGVTYKNKED [PDGFRA_Y993_E996K]"
qualitative_label = "t"

[[record]]
ordered_residues = "LVQAEYWHDPI [PPT1_Y185]"
qualitative_label = "t"

[[record]]
ordered_residues = "LVRPPYSYSAL [FOXI1_Y126]"
qualitative_label = "t"

[[record]]
ordered_residues = "GRLFAYPDTHR [CAT_Y358]"
qualitative_label = "f"

[[record]]
ordered_residues = "AFGEVYEGQES [ALK_Y1131_V1135E]"
qualitative_label = "f"

[[record]]
ordered_residues = "QISQDYGVLLE [PRDX3_Y172_R170Q]"
qualitative_label = "t"

[[record]]
ordered_residues = "GKVFIYHGSSL [ITGA7_Y458]"
qualitative_label = "t"

[[record]]
ordered_residues = "IEELTYVIKQD [STX5_Y137_I138V]"
qualitative_label = "t"

[[record]]
ordered_residues = "PFGQWYESHFA [RPS8_Y113_R110G_YF]"
qualitative_label = "t"

[[record]]
ordered_residues = "STGWSYAGVAV [KLHL3_Y577_R575W]"
qualitative_label = "f"

[[record]]
ordered_residues = "VQNIVYRTASI [CYP39A1_Y102]"
qualitative_label = "f"

[[record]]
ordered_residues = "EGNERYEGFCV [GRIA3_Y451_YF]"
qualitative_label = "t"

[[record]]
ordered_residues = "INNIDYYKKTT [FGFR2_Y656]"
qualitative_label = "t"

[[record]]
ordered_residues = "DVMDFYKTLRG [NR3C1_Y30]"
qualitative_label = "f"

